pIC50: −log10 of the molar value.
Literature pIC50 values, system: F1F0-ATPase (Bos taurus).

compound | experimental.target | pIC50
N#Cc1cccc(C(=O)/N=C(\Nc2cc(-c3ccc(Cl)cc3)n[nH]2)NC2CCC2)c1 | F1F0-ATPase (Bos taurus) | > 5.00
CC(C)N/C(=N/C(=O)c1ccc(C(F)(F)F)cc1)Nc1cc(-c2ccc(Cl)cc2)n[nH]1 | F1F0-ATPase (Bos taurus) | > 5.00
O=C(/N=C(/Nc1cccc(C(F)(F)F)c1)Nc1cccc(O)n1)c1cccc(C(F)(F)F)c1 | F1F0-ATPase (Bos taurus) | > 5.00
CCOC(=O)NC1CCC(N/C(=N\C(=O)c2cccc(C)c2)Nc2cc(F)cc(Cl)c2)CC1 (centres unmarked) | F1F0-ATPase (Bos taurus) | > 5.00
CC(C)(C)CC(=O)/N=C(\Nc1cc(-c2ccc(F)cc2)[nH]n1)NC(C)(C)C | F1F0-ATPase (Bos taurus) | > 5.30
COC[C@H](C)N/C(=N/C(=O)c1ccc(F)c(F)c1)Nc1n[nH]c2cc(F)ccc12 | F1F0-ATPase (Bos taurus) | > 5.30
O=C(/N=C(\Nc1cc(-c2ccc(F)cc2)n[nH]1)NC1CCCC1)c1cccc(F)c1 | F1F0-ATPase (Bos taurus) | > 5.00
O=C(/N=C(\NCC(F)(F)F)Nc1cccc(O)n1)c1ccc(Cl)cc1 | F1F0-ATPase (Bos taurus) | > 5.00

----------
Literature IC50 values, system: F1F0-ATPase (Bos taurus, UniProt P13621).

compound | experimental.target | IC50
Cc1cc(C(=O)/N=C(\Nc2cc(-c3ccc(F)cc3)n[nH]2)NC(C)C)no1 | F1F0-ATPase (Bos taurus, UniProt P13621) | > 16 µM
COc1ccc(C(=O)/N=C(/NCC(C)C)Nc2cc(-c3ccc(F)cc3)n[nH]2)c(F)c1 | F1F0-ATPase (Bos taurus, UniProt P13621) | < 10 µM
O=C(/N=C(/NCc1ccc(F)cc1Cl)Nc1cc(-c2ccc(Cl)cc2)n[nH]1)c1ccc(F)c(F)c1 | F1F0-ATPase (Bos taurus, UniProt P13621) | < 10 µM
O=C(/N=C(/Nc1cccc(C(F)(F)F)c1)N[C@H]1CC[C@H](Nc2ncccn2)CC1)c1ccc(F)c(F)c1 | F1F0-ATPase (Bos taurus, UniProt P13621) | < 10 µM
CC(C)CNC(=NC(=O)c1cccc(Cl)c1)Nc1n[nH]c2cc(F)ccc12 | F1F0-ATPase (Bos taurus, UniProt P13621) | < 5 µM
CC(C)C(C)N/C(=N/C(=O)c1cccc(C#N)c1)Nc1cc(-c2ccc(Cl)cc2)n[nH]1 (stereo not drawn) | F1F0-ATPase (Bos taurus, UniProt P13621) | < 10 µM
CC(C)(C)c1cc(N/C(=N\C(=O)c2ccc(Cl)cc2)NC(C2CC2)C2CC2)n[nH]1 | F1F0-ATPase (Bos taurus, UniProt P13621) | < 10 µM
CC(C)(C)N/C(=N/C(=O)c1ccc(F)cc1)Nc1cc(-c2cccc(Cl)c2)[nH]n1 | F1F0-ATPase (Bos taurus, UniProt P13621) | < 10 µM
COCC(C)NC(=NC(=O)c1cccc(F)c1)Nc1cc(-c2ccc(Cl)cc2)n[nH]1 (stereo not drawn) | F1F0-ATPase (Bos taurus, UniProt P13621) | < 10 µM
COC[C@H](C)N/C(=N/C(=O)c1ccc(F)c(F)c1)Nc1nn(C)c2cc(C(F)(F)F)ccc12 | F1F0-ATPase (Bos taurus, UniProt P13621) | > 16 µM
CC(C)(C)CN/C(=N/C(=O)c1cccc(C#N)c1)Nc1cc(-c2ccc(F)cc2)[nH]n1 | F1F0-ATPase (Bos taurus, UniProt P13621) | < 10 µM
O=C(N=C(Nc1cc(-c2ccc(F)cc2)[nH]n1)NC1CCOC1)c1ccc(F)cc1 (stereo not drawn) | F1F0-ATPase (Bos taurus, UniProt P13621) | < 10 µM
CCC(C)(C)N/C(=N/C(=O)c1ccc(C(F)(F)F)cc1)Nc1cccc(O)n1 | F1F0-ATPase (Bos taurus, UniProt P13621) | < 10 µM
CC(C)(C)N/C(=N/C(=O)c1ccc(C(F)(F)F)cc1)Nc1n[nH]c2ncccc12 | F1F0-ATPase (Bos taurus, UniProt P13621) | > 16 µM
CCOCCCNC(=NC(=O)c1ccc(Cl)cc1)Nc1cc(-c2ccc(F)cc2)n[nH]1 | F1F0-ATPase (Bos taurus, UniProt P13621) | < 10 µM
COCC(C)NC(=NC(=O)c1ccc(C(F)(F)F)cc1)Nc1cc(-c2ccc(Cl)cc2)n[nH]1 (stereo not drawn) | F1F0-ATPase (Bos taurus, UniProt P13621) | < 10 µM
CC(C)CNC(=NC(=O)c1ccc(F)c(F)c1)Nc1cc(-c2cc(F)cc(F)c2)n[nH]1 | F1F0-ATPase (Bos taurus, UniProt P13621) | < 10 µM
CC1(CN/C(=N/C(=O)c2ccc(F)cc2)Nc2cc(-c3ccc(F)cc3)n[nH]2)COC1 | F1F0-ATPase (Bos taurus, UniProt P13621) | < 10 µM
CC(C)(C)CN/C(=N/C(=O)c1ccc(Cl)cc1)Nc1cccc(NC(=O)C(C)(C)C)n1 | F1F0-ATPase (Bos taurus, UniProt P13621) | > 10 µM
N#Cc1cccc(C(=O)/N=C(\Nc2cc(-c3cc(F)cc(F)c3)n[nH]2)NC2CCCC2)c1 | F1F0-ATPase (Bos taurus, UniProt P13621) | < 10 µM
CCC(C)(C)N/C(=N/C(=O)c1ccc(Cl)cc1)Nc1cc(C(F)(F)F)[nH]n1 | F1F0-ATPase (Bos taurus, UniProt P13621) | < 10 µM
O=C(/N=C(/NC1CCCC1)N[C@H]1CC[C@H](Nc2ncccn2)CC1)c1ccc(C(F)(F)F)cc1 | F1F0-ATPase (Bos taurus, UniProt P13621) | < 10 µM
Cc1cc(CN/C(=N/C(=O)c2ccc(C(F)(F)F)cc2)Nc2cccc(O)n2)no1 | F1F0-ATPase (Bos taurus, UniProt P13621) | < 10 µM
O=C(/N=C(\Nc1cccc(O)n1)Nc1ccc(F)cc1C1CC1)c1ccc(F)c(F)c1 | F1F0-ATPase (Bos taurus, UniProt P13621) | < 10 µM
CC(C)(C)N/C(=N/C(=O)c1ccc(O)cc1)Nc1n[nH]c2cc(F)ccc12 | F1F0-ATPase (Bos taurus, UniProt P13621) | 5 to 16 µM
O=C(/N=C(/NCc1ccc(Cl)cc1F)Nc1cc(C(F)(F)F)[nH]n1)c1ccc(C(F)(F)F)cc1 | F1F0-ATPase (Bos taurus, UniProt P13621) | < 10 µM
CCOC(=O)N[C@H]1CC[C@H](N/C(=N\C(=O)c2ccc(F)c(F)c2)NCc2ccc(Cl)c(F)c2)CC1 | F1F0-ATPase (Bos taurus, UniProt P13621) | < 10 µM
Cc1cc(C(=O)/N=C(/NCC(C)C)Nc2cc(-c3cc(F)cc(F)c3)[nH]n2)c(C(F)(F)F)o1 | F1F0-ATPase (Bos taurus, UniProt P13621) | < 5 µM
CC1(N/C(=N\C(=O)c2ccc(C(F)(F)F)cc2)Nc2cccc(O)n2)CC1 | F1F0-ATPase (Bos taurus, UniProt P13621) | < 10 µM
COc1ccc(-c2cc(N/C(=N\C(=O)c3cn(C)nc3C(F)(F)F)Nc3cc(Cl)ccc3F)[nH]n2)cc1F | F1F0-ATPase (Bos taurus, UniProt P13621) | 5 to 16 µM

----------
Literature IC50 values, system: F1F0-ATPase (Bos taurus).

compound | IC50
Cc1cc(CN/C(=N/C(=O)c2ccc(F)c(F)c2)Nc2cccc(O)n2)no1 | < 10 µM
O=C(/N=C(\Nc1cc(-c2ccc(F)cc2)n[nH]1)NC1CCCC1)c1ccc(F)c(F)c1 | < 10 µM
COC[C@H](C)N/C(=N/C(=O)c1ccc(OC)cc1)Nc1cc(C(F)(F)F)[nH]n1 | < 10 µM
COc1cccc(C(=O)N=C(NCc2ccc(F)cc2Cl)Nc2cc(C(F)(F)F)n[nH]2)c1 | < 10 µM
CC(C)(C)N/C(=N/C(=O)c1ccc(Cl)cc1)Nc1cc(-c2ccc(F)cc2)n[nH]1 | < 10 µM
COc1ccc(-c2cc(N/C(=N\C(=O)c3cn(C)nc3C(F)(F)F)Nc3cccc(Cl)c3)[nH]n2)cc1F | < 5 µM
O=C(/N=C(/Nc1cc(F)cc(Cl)c1)N[C@H]1CC[C@H](O)CC1)c1ccc(F)c(F)c1 | < 10 µM
CC(N/C(=N/C(=O)c1ccc(F)c(F)c1)Nc1cc(C(F)(F)F)[nH]n1)c1ccccc1Cl (stereo not drawn) | < 10 µM
CC(C)(C)N/C(=N/C(=O)c1ccc(C(F)(F)F)cc1)Nc1cc(-c2ccc(F)cc2)[nH]n1 | < 10 µM
CC(C)(C)N/C(=N/C(=O)c1ccc(N2CCOCC2)nc1)Nc1cc(-c2ccc(F)cc2)[nH]n1 | < 10 µM
CC(C)(C)N/C(=N/C(=O)c1ccc(C(F)(F)F)cc1)Nc1cc(C(F)(F)F)n[nH]1 | < 10 µM
O=C(N=C(NCc1ccc(F)cc1Cl)Nc1cc(-c2cc(F)cc(F)c2)n[nH]1)c1ccc(C(F)(F)F)cc1 | < 10 µM
CC(C)CNC(=NC(=O)c1ccc(O)cc1)Nc1n[nH]c2cc(F)ccc12 | 5 to 16 µM
CC(C)(C)NC(=NC(=O)c1ccc(F)c(F)c1)Nc1n[nH]c2cc(Cl)c(F)cc12 | < 5 µM
O=C(/N=C(/Nc1cc(F)cc(Cl)c1)Nc1cc(-c2ccc(Cl)cc2)n[nH]1)c1ccc(C(F)(F)F)cc1 | < 10 µM
CCOC(=O)N[C@H]1CC[C@H](N/C(=N\C(=O)c2ccc(F)c(F)c2)NCC(F)(F)F)CC1 | > 10 µM
COc1ccc(-c2cc(N/C(=N\C(=O)c3ccc(C(F)(F)F)cc3)NC3CCCC3)[nH]n2)cc1F | < 10 µM
Cn1cc(C(=O)/N=C(/Nc2cc(F)cc(Cl)c2)Nc2cccc(O)n2)c(C(F)(F)F)n1 | < 5 µM
O=C(/N=C(/NCc1ccc(Cl)cc1)N[C@H]1CC[C@H](O)CC1)c1ccc(F)c(F)c1 | > 10 µM
COC[C@H](C)N/C(=N/C(=O)c1ccc(F)c(F)c1)Nc1n[nH]c2ccc(C(F)(F)F)cc12 | < 5 µM
O=C(N=C(Nc1cc(-c2ccc(F)cc2)n[nH]1)NC1CCOCC1)c1ccc(C(F)(F)F)cc1 | > 10 µM
CC(C)(C)N/C(=N/C(=O)c1ccc(C(F)(F)F)cc1)Nc1cc(-c2cccc(O)c2)n[nH]1 | < 10 µM
CCOC(=O)N[C@H]1CC[C@H](N/C(=N\C(=O)c2ccc(F)c(F)c2)NC2CCC(C)CC2)CC1 (stereo partly drawn) | < 10 µM
Cc1cc(C(=O)/N=C(\Nc2cc(-c3ccc(F)cc3)[nH]n2)N[C@@H](C)CO)ccc1F | < 10 µM
O=C(/N=C(/NCc1cccc(F)c1F)Nc1cccc(O)n1)c1ccc(C(F)(F)F)cc1 | < 10 µM
CCS(=O)(=O)Nc1cccc(N/C(=N\C(=O)c2ccc(F)c(F)c2)NCc2ccccc2C(F)(F)F)n1 | < 10 µM
N#Cc1ccc(C(=O)/N=C(/NCc2ccc(F)cc2Cl)Nc2cc(C(F)(F)F)[nH]n2)cc1 | < 10 µM
CCS(=O)(=O)Nc1cccc(N/C(=N\C(=O)c2ccc(C(F)(F)F)cc2)NCc2ccccc2C(F)(F)F)n1 | < 10 µM
CC1(N/C(=N/C(=O)c2ccc(Cl)cc2)Nc2n[nH]c3ccccc23)CCC1 | < 5 µM
CCNC(=O)[C@H]1CC[C@@H](N/C(=N\C(=O)c2ccc(F)c(F)c2)Nc2cc(F)cc(Cl)c2)CC1 | < 10 µM
